Biological target: human recombinant TYK2 protein (Homo sapiens)
Assay: TYK2 activity inhibition assay (HTRF kinase detection)
Settings: 11.25 μM ATP substrate solution
IC50 values, listed per item
Output should be the measured figure followed by the unit it is expressed in.

O=C(c1ccc(Nc2nc(-c3c(F)cccc3Cl)n3cc[nH]c(=O)c23)cc1)N1CCOCC1 [Compound 3] = 100 pM
CN1CCN(C(=O)C(C)(C)c2ccc(Nc3nc(-c4c(F)cccc4F)n4cc[nH]c(=O)c34)cc2)CC1 [Compound 35] = 400 pM
CC(C)(C(=O)N1CCOCC1)c1ccc(Nc2nc(-c3c(F)cccc3F)n3cc[nH]c(=O)c23)cc1 [Compound 17] = 100 pM

Which IC50 value belongs to O=C(O)c1ccc(Nc2nc(-c3c(F)cccc3F)n3cc[nH]c(=O)c23)cc1 [Compound 39] ?
500 pM

Quick check: IC50 of CC(C)(C(=O)N1CCNCC1)c1ccc(Nc2nc(-c3c(F)cccc3F)n3cc[nH]c(=O)c23)cc1 [Compound 36] ?
400 pM

Which IC50 is reported for this compound? CC(C)(C(=O)O)c1ccc(Nc2nc(-c3c(F)cccc3F)n3cc[nH]c(=O)c23)cc1 [Compound 40]
400 pM

----------
Molecular target: human recombinant JAK2 protein (Homo sapiens)
Experiment: JAK2 activity inhibition assay (HTRF kinase detection)
Assay type: biochemical
Conditions: 2.5 μM ATP substrate solution
Test Readout: IC50 (nM)
Response body: numeric value in nM, unit text excluded.

Consider the following illustrative entries.
Cn1cc(Nc2nc(-c3c(F)cccc3Cl)n3cc[nH]c(=O)c23)cn1 [Compound 26] = 2.9
CC(C)(C(=O)N1CCNCC1)c1ccc(Nc2nc(-c3c(F)cccc3F)n3cc[nH]c(=O)c23)cc1 [Compound 36] = 0.6
Cn1cc(Nc2nc(-c3c(F)cccc3F)n3c2C(=O)NCC3)cn1 [Compound 5] = 27
O=C(c1ccc(Nc2nc(C3CCN(C4CC4)CC3)n3cc[nH]c(=O)c23)cc1)N1CCOCC1 [Compound 21] = 12
NC(=O)c1ccc(Nc2nc(-c3c(F)cccc3F)n3cc[nH]c(=O)c23)cc1 [Compound 27] = 1.4
O=C1NCCn2c(-c3c(F)cccc3F)nc(Nc3ccc(CC(=O)N4CCOCC4)cc3)c21 [Compound 16] = 4.9
O=c1[nH]ccn2c(-c3c(F)cccc3F)nc(Nc3ccc(N4CCOCC4)cc3)c12 [Compound 6] = 5.3
O=C1NCCn2c(-c3c(F)cccc3F)nc(Nc3ccc(N4CCOCC4)cc3)c21 [Compound 10] = 4.4
O=C(Cc1ccc(Nc2nc(-c3c(F)cccc3F)n3cc[nH]c(=O)c23)cc1)N1CCOCC1 [Compound 14] = 0.5
CN1CCN(C(=O)c2ccc(Nc3nc(-c4c(F)cccc4Cl)n4cc[nH]c(=O)c34)cc2)CC1 [Compound 31] = 0.6

Kindly state the measured IC50 obtained for CC(=O)N1CCC(c2nc(Nc3ccc(C(=O)N4CCOCC4)cc3)c3c(=O)[nH]ccn23)CC1 [Compound 19] with human recombinant JAK2 protein (Homo sapiens).
14

Query the reported IC50 for human recombinant JAK2 protein (Homo sapiens); item: CN1CCN(C(=O)Cn2cc(Nc3nc(-c4c(F)cccc4F)n4c3C(=O)NCC4)cn2)CC1 [Compound 25]
39

Value wanted: IC50 (human recombinant JAK2 protein (Homo sapiens)) of entry O=C(c1ccc(Nc2nc(-c3c(F)cccc3Cl)n3cc[nH]c(=O)c23)cc1)N1CCNCC1 [Compound 32]
0.6

// map CC(C)(C(=O)N1CCNCC1)c1ccc(Nc2nc(-c3c(F)cccc3Cl)n3cc[nH]c(=O)c23)cc1 [Compound 38] to recorded IC50 (system: human recombinant JAK2 protein (Homo sapiens))
0.5

Origin of the recorded values: patent US20240246984A1
